target: HLA-A*68:01; assay: IEDB peptide-MHC binding, purified MHC/competitive/radioactivity; filed as Kd, often an IC50 or EC50 that approximates it; bounds were set here for any values at or beyond the usual limits of such assays; conditions: source organism: SARS coronavirus Tor2
Reported values of pKd for individual entries
// pKd here means minus log10 of the molar concentration (mol/L)

stdin: Give its pKd value. Item: `AIYVFCISLK`
stdout: 5.06

stdin: Ok, now `SMQNCLLRLK`
stdout: 5.89

stdin: Ok, now `ATEGALNTPK`
stdout: 6.66

stdin: Ok, now `DFAVSKGFFK`
stdout: 7.77

stdin: Ok, now `GFPFNKWGK`
stdout: 4.76

stdin: Ok, now `TQWSLFFFVY`
stdout: 5.17

stdin: Ok, now `TSTGNYNYK`
stdout: 7.43

###

molecular target: HLA-A*24:02; experiment: IEDB peptide-MHC binding, purified MHC/competitive/fluorescence; bounds were set here for any values at or beyond the usual limits of such assays; conditions: source organism: Variola virus
Reported values of pIC50 for individual entries
// pIC50 here means minus log10 of the molar concentration (mol/L)

IIIAVARKH: 5.53
FSAWISHRP: 6.29

stdin: Give its pIC50 value. Item: `LTGGTGVGK`
stdout: 4.41

###

biological target: HLA-A*32:01; test: IEDB peptide-MHC binding, purified MHC/competitive/radioactivity; filed as Kd, often an IC50 or EC50 that approximates it; bounds were set here for any values at or beyond the usual limits of such assays; details: source organism: Vaccinia virus WR
measurementType: Kd (nM)
I only need the number, in nM, no unit after it.

Examples from the recorded data:
VMCSISLTY: 10.8
VTNVIIIVI: 13.7
YIMYNILPI: 39.4
LVQYIKFIF: 19.8

Could you now consider this next sequence?
stdin: Give its Kd value. Item: `STTRGALIF`
stdout: 296

###

molecular target: HLA-B*51:01; assay: IEDB peptide-MHC binding, purified MHC/competitive/radioactivity; filed as Kd, often an IC50 or EC50 that approximates it; bounds were set here for any values at or beyond the usual limits of such assays; conditions: source organism: Vaccinia virus WR
pKd: −log10 of the molar value.
Reported values of pKd for individual entries

APIKEFKAKI: ≤ 4.65
TPVSMTYLY: ≤ 4.11
VPSVNEYHML: ≤ 4.28

Could you now consider this next sequence?
stdin: Give its pKd value. Item: `MVIENGILKK`
stdout: ≤ 4.16

###

molecular target: HLA-B*35:01; experiment: IEDB peptide-MHC binding, purified MHC/competitive/radioactivity; filed as Kd, often an IC50 or EC50 that approximates it; bounds were set here for any values at or beyond the usual limits of such assays; conditions: source organism: Vaccinia virus WR
Reported values of Kd for individual entries
I only need the number, in µM, no unit after it.

Examples from the recorded data:
YIIRVTTEL: 14.6
IPFIAYFVLM: 1.21

Could you now consider this next sequence?
stdin: Give its Kd value. Item: `TPVSMTYLY`
stdout: 6.62e-05

###

target: HLA-A*68:01; experiment: IEDB peptide-MHC binding, purified MHC/competitive/radioactivity; filed as Kd, often an IC50 or EC50 that approximates it; bounds were set here for any values at or beyond the usual limits of such assays; settings: source organism: Vaccinia virus WR
We label by threshold. Values of Kd strictly beneath 0.4 µM are YES. Values of 0.4 µM and up are NO.

Example cases with answers are listed next.
IILANERYR: YES
VILFIMFMLI: YES

stdin: Please determine if `QQFANVISK` is below 0.4 µM in terms of Kd.
stdout: NO

stdin: Ok, now `IPFIAYFVLM`
stdout: NO

stdin: Ok, now `EIINDKGKQY`
stdout: NO

stdin: Ok, now `LMYALEPRK`
stdout: NO

stdin: Ok, now `MSRGYFEHMK`
stdout: YES

stdin: Ok, now `GINNVQSLIK`
stdout: NO

stdin: Ok, now `HLTKTDKKY`
stdout: NO

stdin: Ok, now `NVTLFYCDER`
stdout: YES

stdin: Ok, now `FMVSVSDFR`
stdout: YES

stdin: Ok, now `PTKRCRLLK`
stdout: NO

stdin: Ok, now `KAGNILFWPY`
stdout: NO

stdin: Ok, now `QLLKILDNLR`
stdout: NO

###

biological target: HLA-A*32:01; assay: IEDB peptide-MHC binding, purified MHC/competitive/radioactivity; filed as Kd, often an IC50 or EC50 that approximates it; bounds were set here for any values at or beyond the usual limits of such assays; conditions: source organism: Dengue virus 2 Jamaica/1409/1983
measurementType: pKd
// pKd here means minus log10 of the molar concentration (mol/L)

RVLNLVENW: 7.67

Could you now consider this next sequence?
stdin: Give its pKd value. Item: `EDMLAVWNRV`
stdout: 6.66

###

target: HLA-A*33:01; experiment: IEDB peptide-MHC binding, purified MHC/competitive/radioactivity; filed as Kd, often an IC50 or EC50 that approximates it; bounds were set here for any values at or beyond the usual limits of such assays; details: source organism: Vaccinia virus WR
measurementType: Kd (µM)
I only need the number, in µM, no unit after it.

stdin: Give its Kd value. Item: `FAYVMNIER`
stdout: 0.0125

stdin: Ok, now `LLNETAKVIK`
stdout: 15.4

stdin: Ok, now `KAMLYIIRR`
stdout: 0.15

###

target: HLA-A*01:01; assay: IEDB peptide-MHC binding, purified MHC/competitive/radioactivity; filed as Kd, often an IC50 or EC50 that approximates it; bounds were set here for any values at or beyond the usual limits of such assays; conditions: source organism: SARS coronavirus Tor2
measurementType: Kd

Examples from the recorded data:
VMPVHTLSI: ≥ 78.1 µM
YEDQDALFAY: ≥ 92.6 µM
VYKVYYGNAL: ≥ 37.2 µM
APALQEAYY: ≥ 109 µM

stdin: Missing value: Kd, HLA-A*01:01, entry `LYLTQDLFL` . Fill in?
stdout: ≥ 20.4 µM

stdin: Ok, now `TYASALWEI`
stdout: ≥ 78.1 µM

stdin: Ok, now `SYREAACCHL`
stdout: ≥ 25.1 µM

###

Reported values of Kd for individual entries
target: HLA-A*11:01; assay: IEDB peptide-MHC binding, purified MHC/competitive/radioactivity; filed as Kd, often an IC50 or EC50 that approximates it; bounds were set here for any values at or beyond the usual limits of such assays; details: source organism: Vaccinia virus WR

Examples from the recorded data:
LSCAVHLIIY: ≥ 61.4 µM
PLTSLVITY: ≥ 22.1 µM
DIALALEQY: ≥ 77.9 µM
YITDDSDDY: ≥ 77.9 µM
EMVDELVTR: ≥ 40.9 µM
YIIRVTTEL: ≥ 77.9 µM

Could you now consider this next sequence?
stdin: Give its Kd value. Item: `EIINDKGKQY`
stdout: ≥ 69.8 µM

###

biological target: HLA-A*02:01; experiment: IEDB peptide-MHC binding, purified MHC/competitive/fluorescence; bounds were set here for any values at or beyond the usual limits of such assays; settings: source organism: Zaire ebolavirus
measurementType: IC50

Examples from the recorded data:
GRRTRREAI: ≥ 83.2 µM
QRVIPVYQV: ≥ 113 µM

stdin: Give its IC50 value. Item: `APFARLLNL`
stdout: ≥ 161 µM

stdin: Ok, now `VRLHPLART`
stdout: ≥ 331 µM

###

Reported values of Kd for individual entries
target: HLA-A*33:01; test: IEDB peptide-MHC binding, purified MHC/competitive/radioactivity; filed as Kd, often an IC50 or EC50 that approximates it; bounds were set here for any values at or beyond the usual limits of such assays; details: source organism: SARS coronavirus Tor2

TTTSTALGK: ≥ 77.7 µM
ATEGALNTPK: ≥ 44.6 µM
AIYVFCISLK: ≥ 48.9 µM
GVTFQGKFKK: ≥ 24.1 µM
GQGQNSADPK: ≥ 70 µM

Could you now consider this next sequence?
stdin: Give its Kd value. Item: `NLKQLPFFYY`
stdout: ≥ 70 µM

###

Reported values of Kd for individual entries
molecular target: HLA-A*33:01; assay: IEDB peptide-MHC binding, purified MHC/competitive/radioactivity; filed as Kd, often an IC50 or EC50 that approximates it; bounds were set here for any values at or beyond the usual limits of such assays; settings: source organism: Vaccinia virus WR

LMYALEPRK: ≥ 25.9 µM
VLEIINDKGK: ≥ 70 µM
QQFANVISK: ≥ 28.3 µM
IIDAKNDDWK: ≥ 70 µM
PTKRCRLLK: ≥ 23.7 µM
TSLAIKNYY: ≥ 29.3 µM
YITDDSDDY: ≥ 77.7 µM
GAAVTLNRIK: ≥ 70 µM

stdin: Missing value: Kd, HLA-A*33:01, entry `CSRMLDTSEK` . Fill in?
stdout: ≥ 70 µM

stdin: Ok, now `CANGWIQYDK`
stdout: ≥ 27 µM

stdin: Ok, now `YIIRVTTEL`
stdout: ≥ 77.7 µM

stdin: Ok, now `MVIENGILKK`
stdout: ≥ 35.1 µM

stdin: Ok, now `KAGNILFWPY`
stdout: ≥ 70 µM

stdin: Ok, now `EIINDKGKQY`
stdout: ≥ 70 µM
